Catalogue of koff values
- study.system: T1, Human ALPP (leucine zipper) (human)
- T1 construct: Whole entry: ALPP fused with a cysteine stabilised leucine zipper and His tag; also called hALPP
- T1 chain: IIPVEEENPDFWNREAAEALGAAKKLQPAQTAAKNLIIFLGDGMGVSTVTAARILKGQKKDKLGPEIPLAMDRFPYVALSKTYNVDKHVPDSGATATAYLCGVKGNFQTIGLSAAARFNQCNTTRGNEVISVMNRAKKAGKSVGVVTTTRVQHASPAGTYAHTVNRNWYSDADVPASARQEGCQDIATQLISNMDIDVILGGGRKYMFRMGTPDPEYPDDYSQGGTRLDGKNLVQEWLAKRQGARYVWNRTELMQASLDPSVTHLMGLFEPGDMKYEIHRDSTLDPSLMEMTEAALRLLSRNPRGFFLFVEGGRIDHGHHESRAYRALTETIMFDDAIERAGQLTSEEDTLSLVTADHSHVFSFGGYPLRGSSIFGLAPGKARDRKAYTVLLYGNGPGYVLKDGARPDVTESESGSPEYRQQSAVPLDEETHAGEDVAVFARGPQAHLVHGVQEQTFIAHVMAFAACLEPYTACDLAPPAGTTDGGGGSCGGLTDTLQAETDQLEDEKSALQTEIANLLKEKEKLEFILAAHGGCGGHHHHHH
- test.description: BLI, antigen immobilised

{"binder": "F09 (VHH, not shown: small tags and cut ends) VHH: QVQLVESGGGSVQAGGSLRLSCAASGPSLSNYAMGWFRQAPGKEREFVAGISWGGGRTSCTDSVKGRFTISRDNAKNTVYLQMNNLKPEDTGVYYCAGRYGRGRNVEYEYDYWGQGTQVTVSS", "koff": "< 1e-07 s⁻¹"}
{"binder": "D08 (VHH, not shown: small tags and cut ends) VHH: QVHLVESGGGSVQAGGSLRLSCAASGPSLSNYAMGWFRQAPGKEREFVAGISWGGGRTSYTDSVKGRFTISRDNAKNTVYLQMNNLKPEDTGVYYCAGRYGRGRNVEYEYDYWGQGTKVTVSS", "koff": "< 1e-07 s⁻¹"}

What value of koff has been recorded for this entry: C06 (VHH, not shown: small tags and cut ends) VHH: QVQLVESGGGLVQPGGSLRVSCAASGPSLSNYAMGWFRQAPGKEREFVAGISWGGGRTSYTDSVKGRFTISRDNAKNTVYLQMNNLKPEDTGVYYCAGRYGRGRNVEYEYDYWGQGTQVTVSS
< 1e-07 s⁻¹

Moving on to the next binder: A06 His (VHH, not shown: small tags and cut ends, also called #250) VHH: QVHLVESGGGLVQAGGSLRLSCAASGRTFLSMGWFRQAPGKEREFVAAISWTGGSTGYADSVKGRFTISRESDKETMYLQMNSLKPEDTAVYYCAARGDVYYGGDDATRYKYWGQGTQVTVSS
0.000154 s⁻¹

Attribution: patent US20260216242A1
